procedureSummary: cytotoxicity in OVCAR8 ovarian cancer cells, dose response, PAX8 project, cell-based, plate reader, dry powder samples (AID 743197)
conditions: series mostly up to 35 µM
Entries with a potency or affinity are not part of this list. Calls of active or inactive are those of the source. The rule behind the calls is not given here.
reportedMetric: outcome

Example results:
molecularString: C[C@H]1CN([C@@H](C)CO)C(=O)Cc2cc(NC(=O)Nc3ccc(C(F)(F)F)cc3)ccc2O[C@H]1CN(C)C(=O)NC1CCCCC1
outcome: inactive
//
molecularString: C[C@H]1CCCCO[C@@H](CN(C)C(=O)NC2CCCCC2)[C@@H](C)CN([C@@H](C)CO)C(=O)c2cc(NC(=O)Nc3ccc(C(F)(F)F)cc3)ccc2O1
outcome: inactive
//
molecularString: C[C@H]1CCCCO[C@@H](CN(C)Cc2ccc(C(=O)O)cc2)[C@@H](C)CN([C@@H](C)CO)C(=O)c2cc(NS(=O)(=O)c3ccc(Cl)cc3)ccc2O1
outcome: inactive
//
molecularString: C[C@H]1CCCCO[C@@H](CN(C)C)[C@@H](C)CN([C@@H](C)CO)C(=O)c2cc(NC(=O)Nc3ccc(C(F)(F)F)cc3)ccc2O1
outcome: inactive
//
molecularString: CCCNC(=O)Nc1ccc2c(c1)OC[C@@H](C)N(Cc1ccc(-c3ccccn3)cc1)C[C@@H](C)[C@H](OC)CN(C)C2=O
outcome: inactive

q: Supply measured outcome of C[C@@H]1CN([C@H](C)CO)C(=O)c2cc(NC(=O)Nc3ccc(C(F)(F)F)cc3)ccc2O[C@@H](C)CCCCO[C@H]1CN(C)C(=O)Nc1ccc(F)cc1 in your reply.
a: inactive

q: Name the recorded outcome of the molecule listed here: C[C@H]1CCCCO[C@@H](CN(C)C(=O)Nc2ccc(C(F)(F)F)cc2)[C@@H](C)CN([C@@H](C)CO)C(=O)c2cc(NS(=O)(=O)c3cn(C)cn3)ccc2O1
a: inactive

q: Report outcome for C[C@@H]1CN([C@@H](C)CO)C(=O)Cc2cc(NS(=O)(=O)c3ccc(Cl)cc3)ccc2O[C@H]1CN(C)Cc1ccc(C(F)(F)F)cc1
a: inactive

q: Return value of outcome for input O=C(C[C@@H]1C[C@@H]2c3cc(NC(=O)Nc4ccccc4F)ccc3O[C@@H]2[C@H](CO)O1)NCc1ccc(Oc2ccccc2)cc1 , no commentary.
a: inactive

q: Please report the measured outcome for C[C@H]1CCCCO[C@H](CN(C)S(=O)(=O)c2ccc(Cl)cc2)[C@@H](C)CN([C@@H](C)CO)C(=O)c2cc(NS(=O)(=O)c3ccc(F)cc3)ccc2O1
a: inactive

q: Tell me measured outcome for COc1cccc(C#Cc2ccc([C@H]3[C@@H](C#N)N(C(=O)c4ccccn4)[C@@H]3CO)cc2)c1 please.
a: inactive

q: Return value of outcome for input COc1cccc(C#Cc2ccc([C@H]3[C@@H](CO)N(C(=O)C4CCCC4)[C@H]3C#N)cc2)c1 , no commentary.
a: inactive

q: Provide only the value of recorded outcome for Cc1ccc(S(=O)(=O)Nc2cccc3c2O[C@@H](CN(C)C(=O)Nc2ccc(C(F)(F)F)cc2)[C@@H](C)CN([C@H](C)CO)C3=O)cc1
a: inactive

q: Hello, please tell me recorded outcome for this one: C[C@@H]1CN([C@@H](C)CO)C(=O)c2c(c3ccccc3n2C)-c2ccccc2CO[C@@H]1CN(C)S(=O)(=O)c1ccc(C(F)(F)F)cc1
a: inactive

q: For the molecule C[C@@H]1CN([C@H](C)CO)C(=O)c2cc(NC(=O)Nc3ccc(F)cc3)ccc2O[C@@H](C)CCCCO[C@H]1CN(C)C(=O)NC1CCCCC1 , give its measured outcome value.
a: inactive

q: Determine from records and report outcome for C[C@@H]1CCCCO[C@H](CN(C)CC2CCCCC2)[C@H](C)CN([C@H](C)CO)C(=O)c2cc(NS(=O)(=O)c3ccc(Cl)cc3)ccc2O1
a: inactive

Cited source: PubChem BioAssay
